Sourced from ChEMBL document CHEMBL2311368

molecular target: Mast/stem cell growth factor receptor Kit (Homo sapiens, UniProt P10721); experiment: Binding affinity to human c-Kit
Sequence (P10721 whole entry): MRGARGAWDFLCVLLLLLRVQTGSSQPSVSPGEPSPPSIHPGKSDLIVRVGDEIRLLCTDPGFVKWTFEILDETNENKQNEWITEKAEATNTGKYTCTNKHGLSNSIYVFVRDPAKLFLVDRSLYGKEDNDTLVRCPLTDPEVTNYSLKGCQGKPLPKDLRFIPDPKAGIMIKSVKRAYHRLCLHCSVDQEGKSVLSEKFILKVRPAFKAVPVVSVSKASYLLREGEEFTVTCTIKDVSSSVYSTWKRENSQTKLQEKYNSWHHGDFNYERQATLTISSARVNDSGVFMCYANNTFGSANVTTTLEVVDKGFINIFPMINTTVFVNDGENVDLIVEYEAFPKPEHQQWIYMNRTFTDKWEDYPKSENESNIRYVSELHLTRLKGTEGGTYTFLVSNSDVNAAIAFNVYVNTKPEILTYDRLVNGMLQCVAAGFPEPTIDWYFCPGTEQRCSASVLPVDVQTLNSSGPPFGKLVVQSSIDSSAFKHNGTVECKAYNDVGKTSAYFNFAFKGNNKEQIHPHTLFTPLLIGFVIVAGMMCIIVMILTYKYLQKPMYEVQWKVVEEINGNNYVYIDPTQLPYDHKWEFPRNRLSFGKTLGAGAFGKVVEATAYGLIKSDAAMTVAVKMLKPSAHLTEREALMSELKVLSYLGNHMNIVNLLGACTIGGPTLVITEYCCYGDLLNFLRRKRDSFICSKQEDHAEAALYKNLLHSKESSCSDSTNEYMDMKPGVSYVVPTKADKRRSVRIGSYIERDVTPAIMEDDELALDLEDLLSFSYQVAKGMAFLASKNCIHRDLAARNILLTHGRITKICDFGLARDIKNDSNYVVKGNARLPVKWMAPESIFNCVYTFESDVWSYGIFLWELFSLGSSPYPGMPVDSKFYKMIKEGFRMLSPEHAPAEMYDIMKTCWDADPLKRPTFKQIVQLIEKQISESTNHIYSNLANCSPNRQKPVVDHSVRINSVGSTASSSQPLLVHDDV
The compounds listed here are annotated with their Kd.
experimental-readout: Kd (nM)

{"columns": ["smiles-data", "system", "value-reported"],
 "data": [
  ["Cc1cn(-c2cc(F)cc(NC(=O)c3ccc(C)c(Nc4nccc(-c5cccnc5)n4)c3)c2)cn1", "Mast/stem cell growth factor receptor Kit (Homo sapiens, UniProt P10721)", 3.5],
  ["Cc1cn(-c2cccc(NC(=O)c3ccc(C)c(Nc4nccc(-c5cccnc5)n4)c3)c2)cn1", "Mast/stem cell growth factor receptor Kit (Homo sapiens, UniProt P10721)", 4.4]
]}

* * *

target: Discoidin domain-containing receptor 2 (Homo sapiens, UniProt Q16832)
Sequence (Q16832 whole entry, the tested form may be a part): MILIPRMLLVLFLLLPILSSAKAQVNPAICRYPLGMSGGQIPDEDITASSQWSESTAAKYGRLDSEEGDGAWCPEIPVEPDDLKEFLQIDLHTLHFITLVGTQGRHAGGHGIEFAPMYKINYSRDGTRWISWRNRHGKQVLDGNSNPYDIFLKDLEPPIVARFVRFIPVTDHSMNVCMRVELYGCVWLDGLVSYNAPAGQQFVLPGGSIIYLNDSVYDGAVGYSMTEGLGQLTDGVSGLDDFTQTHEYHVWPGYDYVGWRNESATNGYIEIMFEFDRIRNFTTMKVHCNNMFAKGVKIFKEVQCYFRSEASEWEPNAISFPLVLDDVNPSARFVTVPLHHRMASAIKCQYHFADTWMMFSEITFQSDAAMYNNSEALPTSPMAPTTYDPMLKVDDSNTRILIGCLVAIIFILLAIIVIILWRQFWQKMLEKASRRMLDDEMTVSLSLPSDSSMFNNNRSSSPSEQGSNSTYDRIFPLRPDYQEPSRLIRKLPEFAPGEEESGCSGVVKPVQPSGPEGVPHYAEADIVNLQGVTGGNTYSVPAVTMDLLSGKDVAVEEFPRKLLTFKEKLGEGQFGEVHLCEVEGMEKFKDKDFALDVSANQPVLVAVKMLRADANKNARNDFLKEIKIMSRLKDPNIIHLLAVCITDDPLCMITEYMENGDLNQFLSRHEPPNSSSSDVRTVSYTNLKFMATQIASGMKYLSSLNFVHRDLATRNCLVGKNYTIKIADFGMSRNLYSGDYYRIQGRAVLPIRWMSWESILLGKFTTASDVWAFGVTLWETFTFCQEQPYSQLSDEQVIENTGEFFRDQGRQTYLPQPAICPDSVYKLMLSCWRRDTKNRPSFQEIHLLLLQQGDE
The compounds listed here are annotated with their IC50.
experimental-readout: IC50

{"columns": ["smiles-data", "experimental-readout", "value-reported"],
 "data": [
  ["Cc1cc(NC(=O)c2ccc(C)c(Nc3nccc(-c4cccnc4)n3)c2)cc(-n2cnc(C)c2)c1", "IC50", "17.2 nM"],
  ["Cc1cn(-c2cc(F)cc(NC(=O)c3ccc(C)c(Nc4nccc(-c5cccnc5)n4)c3)c2)cn1", "IC50", "179 nM"]
]}

* * *

target: Mast/stem cell growth factor receptor Kit (Homo sapiens, UniProt P10721, V654A); assay: Inhibition of human c-Kit V654A mutant using poly[Glu:Tyr] (4:1) peptide substrate
Sequence (P10721 26-976 V654A limits assumed): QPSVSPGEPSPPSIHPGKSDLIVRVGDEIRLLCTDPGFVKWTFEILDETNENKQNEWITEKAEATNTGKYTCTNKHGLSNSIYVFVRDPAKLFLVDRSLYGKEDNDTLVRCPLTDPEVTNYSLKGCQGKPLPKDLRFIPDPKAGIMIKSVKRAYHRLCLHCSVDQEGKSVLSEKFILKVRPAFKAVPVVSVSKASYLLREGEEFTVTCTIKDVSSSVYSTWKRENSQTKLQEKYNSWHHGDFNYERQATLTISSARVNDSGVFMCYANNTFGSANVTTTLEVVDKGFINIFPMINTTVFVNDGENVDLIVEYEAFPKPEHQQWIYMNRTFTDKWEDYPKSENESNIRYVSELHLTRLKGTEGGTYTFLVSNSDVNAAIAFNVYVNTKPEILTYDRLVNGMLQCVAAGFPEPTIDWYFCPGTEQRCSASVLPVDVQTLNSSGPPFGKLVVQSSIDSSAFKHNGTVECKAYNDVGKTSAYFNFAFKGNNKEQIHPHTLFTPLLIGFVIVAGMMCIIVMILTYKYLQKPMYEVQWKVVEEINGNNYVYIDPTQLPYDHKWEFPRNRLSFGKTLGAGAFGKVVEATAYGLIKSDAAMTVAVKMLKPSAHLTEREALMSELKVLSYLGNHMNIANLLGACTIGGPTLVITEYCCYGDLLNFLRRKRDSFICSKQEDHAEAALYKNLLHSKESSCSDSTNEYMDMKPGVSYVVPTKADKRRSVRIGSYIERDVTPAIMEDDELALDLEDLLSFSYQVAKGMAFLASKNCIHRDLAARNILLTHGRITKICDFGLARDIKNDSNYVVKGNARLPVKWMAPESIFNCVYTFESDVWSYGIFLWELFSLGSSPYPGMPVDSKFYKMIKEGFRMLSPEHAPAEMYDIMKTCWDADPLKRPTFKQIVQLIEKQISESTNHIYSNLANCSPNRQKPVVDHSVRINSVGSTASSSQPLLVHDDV
The compounds listed here are annotated with their IC50.

{"columns": ["smiles-data", "system", "IC50"],
 "data": [
  ["Cc1cc(NC(=O)c2ccc(C)c(Nc3nccc(-c4cccnc4)n3)c2)cc(-n2cnc(C)c2)c1", "Mast/stem cell growth factor receptor Kit (Homo sapiens, UniProt P10721, V654A)", "> 1 µM"],
  ["Cc1cn(-c2cccc(NC(=O)c3ccc(C)c(Nc4nccc(-c5cccnc5)n4)c3)c2)cn1", "Mast/stem cell growth factor receptor Kit (Homo sapiens, UniProt P10721, V654A)", "> 1 µM"],
  ["Cc1cn(-c2cc(F)cc(NC(=O)c3ccc(C)c(Nc4nccc(-c5cccnc5)n4)c3)c2)cn1", "Mast/stem cell growth factor receptor Kit (Homo sapiens, UniProt P10721, V654A)", "> 0.4 µM"]
]}

* * *

Target: Receptor-type tyrosine-protein kinase FLT3 (Homo sapiens, UniProt P36888)
Sequence (P36888 whole entry): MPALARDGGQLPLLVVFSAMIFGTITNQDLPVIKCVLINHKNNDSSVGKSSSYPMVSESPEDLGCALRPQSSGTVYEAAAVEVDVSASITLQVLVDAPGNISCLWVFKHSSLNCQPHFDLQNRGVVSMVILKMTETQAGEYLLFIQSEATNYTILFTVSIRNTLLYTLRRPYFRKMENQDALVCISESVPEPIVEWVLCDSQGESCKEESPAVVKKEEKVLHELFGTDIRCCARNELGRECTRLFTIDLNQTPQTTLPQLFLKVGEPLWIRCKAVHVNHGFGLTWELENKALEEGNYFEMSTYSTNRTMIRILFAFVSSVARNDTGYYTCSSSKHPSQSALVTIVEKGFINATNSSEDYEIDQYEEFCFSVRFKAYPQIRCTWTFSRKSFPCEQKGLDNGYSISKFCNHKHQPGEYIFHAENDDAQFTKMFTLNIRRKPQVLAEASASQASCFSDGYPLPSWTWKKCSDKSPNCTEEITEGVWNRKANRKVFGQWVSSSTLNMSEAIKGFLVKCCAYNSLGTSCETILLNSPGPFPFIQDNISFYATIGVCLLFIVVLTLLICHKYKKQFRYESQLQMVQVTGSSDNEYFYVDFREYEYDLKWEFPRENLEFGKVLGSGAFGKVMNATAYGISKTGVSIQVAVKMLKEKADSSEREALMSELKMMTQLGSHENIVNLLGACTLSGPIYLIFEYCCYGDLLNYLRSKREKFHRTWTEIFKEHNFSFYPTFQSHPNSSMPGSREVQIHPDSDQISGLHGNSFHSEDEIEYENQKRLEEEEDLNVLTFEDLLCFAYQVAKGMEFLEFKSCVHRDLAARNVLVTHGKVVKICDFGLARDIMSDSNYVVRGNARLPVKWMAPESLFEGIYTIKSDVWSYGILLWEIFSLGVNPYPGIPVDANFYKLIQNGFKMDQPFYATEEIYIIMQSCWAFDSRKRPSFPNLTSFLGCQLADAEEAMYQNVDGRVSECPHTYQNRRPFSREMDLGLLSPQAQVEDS
pIC50: −log10 of the molar value.
The compounds listed here are annotated with their pIC50.
experimental-readout: pIC50

{"columns": ["smiles-data", "experimental-readout", "value-reported"],
 "data": [
  ["Cc1cc(NC(=O)c2ccc(C)c(Nc3nccc(-c4cccnc4)n3)c2)cc(-n2cnc(C)c2)c1", "pIC50", 6.05],
  ["Cc1cn(-c2cccc(NC(=O)c3ccc(C)c(Nc4nccc(-c5cccnc5)n4)c3)c2)cn1", "pIC50", 6.01]
]}

* * *

biological target: Mast/stem cell growth factor receptor Kit (Homo sapiens, UniProt P10721, T670I); experiment: Inhibition of human c-Kit T670I mutant using poly[Glu:Tyr] (4:1) peptide substrate
Sequence (P10721 26-976 T670I limits assumed): as the sequence (P10721 26-976 V654A limits assumed) above, with A629V, T645I counted along it
The compounds listed here are annotated with their IC50.

{"columns": ["smiles-data", "system", "IC50"],
 "data": [
  ["Cc1cn(-c2cc(F)cc(NC(=O)c3ccc(C)c(Nc4nccc(-c5cccnc5)n4)c3)c2)cn1", "Mast/stem cell growth factor receptor Kit (Homo sapiens, UniProt P10721, T670I)", "> 1 µM"],
  ["Cc1cc(NC(=O)c2ccc(C)c(Nc3nccc(-c4cccnc4)n3)c2)cc(-n2cnc(C)c2)c1", "Mast/stem cell growth factor receptor Kit (Homo sapiens, UniProt P10721, T670I)", "> 1 µM"],
  ["Cc1cn(-c2cccc(NC(=O)c3ccc(C)c(Nc4nccc(-c5cccnc5)n4)c3)c2)cn1", "Mast/stem cell growth factor receptor Kit (Homo sapiens, UniProt P10721, T670I)", "> 1 µM"]
]}

* * *

Target: Receptor-type tyrosine-protein kinase FLT3 (Homo sapiens)
Sequence (P36888 whole entry): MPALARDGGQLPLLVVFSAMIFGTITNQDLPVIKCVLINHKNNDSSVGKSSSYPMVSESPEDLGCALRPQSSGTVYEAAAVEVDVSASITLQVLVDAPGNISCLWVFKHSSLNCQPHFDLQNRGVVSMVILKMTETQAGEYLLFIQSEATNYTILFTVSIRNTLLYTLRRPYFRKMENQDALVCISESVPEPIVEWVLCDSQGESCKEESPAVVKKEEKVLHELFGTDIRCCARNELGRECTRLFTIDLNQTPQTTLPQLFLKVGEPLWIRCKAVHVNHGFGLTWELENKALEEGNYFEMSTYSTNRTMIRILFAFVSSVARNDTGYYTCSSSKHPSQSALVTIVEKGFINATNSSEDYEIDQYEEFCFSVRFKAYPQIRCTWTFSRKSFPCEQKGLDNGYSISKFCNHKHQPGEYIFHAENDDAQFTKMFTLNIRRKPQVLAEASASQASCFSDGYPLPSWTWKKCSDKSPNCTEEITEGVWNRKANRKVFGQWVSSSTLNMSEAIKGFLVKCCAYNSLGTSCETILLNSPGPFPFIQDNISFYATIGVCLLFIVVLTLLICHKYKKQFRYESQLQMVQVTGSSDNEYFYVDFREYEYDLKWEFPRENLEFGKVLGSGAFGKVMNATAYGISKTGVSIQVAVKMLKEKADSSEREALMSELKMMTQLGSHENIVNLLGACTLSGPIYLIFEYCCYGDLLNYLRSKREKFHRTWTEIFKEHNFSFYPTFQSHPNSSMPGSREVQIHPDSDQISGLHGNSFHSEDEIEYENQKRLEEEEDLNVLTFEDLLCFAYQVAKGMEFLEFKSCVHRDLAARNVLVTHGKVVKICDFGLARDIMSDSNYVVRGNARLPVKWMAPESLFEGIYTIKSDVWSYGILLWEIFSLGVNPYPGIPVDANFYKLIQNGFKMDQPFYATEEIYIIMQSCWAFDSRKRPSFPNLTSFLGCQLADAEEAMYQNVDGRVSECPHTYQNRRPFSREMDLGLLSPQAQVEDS

{"columns": ["smiles-data", "system", "Kd"],
 "data": [
  ["Cc1cc(NC(=O)c2ccc(C)c(Nc3nccc(-c4cccnc4)n3)c2)cc(-n2cnc(C)c2)c1", "Receptor-type tyrosine-protein kinase FLT3 (Homo sapiens)", "1200 nM"]
]}
